Consider the following molecules; for each one, report its drug sensitivity score.
System: Kuramochi
procedure_summary: drug sensitivity score (DSS) from 5-point dose-response viability curve (DSS (area-under-curve based score)); higher = more sensitive (stronger growth inhibition or killing); extreme values may be limits of the assay
stated_conditions: exposure time: 72 h; concentration range: 5 concentrations over 10,000-fold range

Task: Entry under review: C/C(=C\c1csc(C)n1)[C@@H]1C[C@@H]2O[C@]2(C)CCC[C@H](C)[C@H](O)[C@@H](C)C(=O)C(C)(C)[C@@H](O)CC(=O)N1 [Ixabepilone] . Reported drug sensitivity score?
Result: 2.6

Task: Entry to check: CC(=O)c1c(C)c2cnc(Nc3ccc(N4CCNCC4)cn3)nc2n(C2CCCC2)c1=O [Palbociclib]
Result: 1.4

Task: Repeat with CNS(=O)(=O)Nc1nccc(Cc2c(C)c3ccc(Oc4ncccn4)cc3oc2=O)c1F
Result: 0

Task: And the next one, CN(C)C(=O)c1ccc(S(=O)(=O)c2ccc(NC(=O)[C@@](C)(O)C(F)(F)F)c(Cl)c2)cc1 [AZD7545] ?
Result: 0

Task: Please give the result for N.N.[Cl][Pt][Cl] [Cisplatin] too.
Result: 11.2

Task: Now give it for O=C(CCNC(=O)c1ccc(OC(F)(F)F)cc1)N[C@@H]1CCCc2ccccc21 [ML390] too.
Result: 5.3

Task: Could you do the same for COc1cc(OC2CCN(C)CC2)ccc1Nc1ncc2c(n1)n(C1CCCC1)c(=O)n2C [AZ 3146] , please?
Result: 3.9

Task: What about this molecule? C[C@@H](C(=O)O)c1ccc(-c2ccccc2)c(F)c1 [Tarenflurbil]
Result: 0

###

Can you tell me drug sensitivity score for the items I'm about to list?
Tested on: HOSE1C
procedure_summary: drug sensitivity score (DSS) from 5-point dose-response viability curve (DSS (area-under-curve based score)); higher = more sensitive (stronger growth inhibition or killing); extreme values may be limits of the assay
stated_conditions: exposure time: 72 h; concentration range: 5 concentrations over 10,000-fold range
Reply with the value as a number alone.

Task: Param item = COc1cc(OC)cc(N(CCNC(C)C)c2ccc3ncc(-c4cnn(C)c4)nc3c2)c1 [Erdafitinib] ; retrieve measured drug sensitivity score.
Result: 3.2

Task: Another compound to look at: COC(=O)C[C@](O)(CCCC(C)(C)O)C(=O)O[C@@H]1C(OC)=C[C@]23CCCN2CCc2cc4c(cc2[C@H]13)OCO4 [Omacetaxine]
Result: 31

Task: Same for Cn1cc(C2=C(c3cn(C4CCN(Cc5ccccn5)CC4)c4ccccc34)C(=O)NC2=O)c2ccccc21 [Enzastaurin]
Result: 0.2

Task: Next: Cc1ccc(C(=O)Nc2ccc(CN3CCN(C)CC3)c(C(F)(F)F)c2)cc1C#Cc1cnc2cccnn12 [Ponatinib]
Result: 3.3

Task: O=S(=O)(c1cccc2c(O)nccc12)N1CCCNCC1 [Hydroxyfasudil] , same question.
Result: 0

Task: Next entry: CCNc1nc(Nc2cc(F)c(C(=O)N3CCOCC3)cc2OC)ncc1C(F)(F)F [GNE-7915]
Result: 0

Task: Same thing, different compound: CC[C@H](C)C(=O)O[C@H]1C[C@H](O)C=C2C=C[C@H](C)[C@H](CC[C@@H](O)C[C@@H](O)CC(=O)O)[C@H]21 [Pravastatin]
Result: 0

###

Test system: OVCAR4
procedure_summary: drug sensitivity score (DSS) from 5-point dose-response viability curve (DSS (area-under-curve based score)); higher = more sensitive (stronger growth inhibition or killing); extreme values may be limits of the assay
stated_conditions: exposure time: 72 h; concentration range: 5 concentrations over 10,000-fold range
Classification field: enter Y for drug sensitivity score values not below 2, N for values below it.

Task: drug sensitivity score >= 2 for CCN(CC)CCNC(=O)c1c(C)[nH]c(/C=C2\C(=O)Nc3ccc(-c4csc(-c5ccccc5)n4)cc32)c1C ?
Result: N

Task: Also, CNC(=O)c1ccc(N2C(=S)N(c3ccc(C#N)c(C(F)(F)F)c3)C(=O)C2(C)C)cc1F [Enzalutamide] please.
Result: N

Task: // next record CC(C)(C)c1cc(NC(=O)Nc2ccc(-c3cn4c(n3)sc3cc(OCCN5CCOCC5)ccc34)cc2)no1
Result: N

Task: Quick one: CCC1=C[C@@H]2CN(C1)Cc1c([nH]c3ccccc13)[C@@](C(=O)OC)(c1cc3c(cc1OC)N(C)[C@H]1[C@@](O)(C(=O)OC)[C@H](OC(C)=O)[C@]4(CC)C=CCN5CC[C@]31[C@@H]54)C2
Result: Y

Task: Then CC#CC(=O)N1CC[C@@H](n2c(=O)n(-c3ccc(Oc4ccccc4)cc3)c3c(N)ncnc32)C1 ?
Result: N

Task: Same read-out for COc1cc2c(NC3CCN(C(C)C)CC3)nc(C3CCCCC3)nc2cc1OCCCN1CCCC1 ?
Result: N

Task: Also FC(F)(F)c1ccc(/C=C/c2nc(COc3ccc(CCCCn4ccnn4)cc3)co2)cc1 ?
Result: Y

###

Test system: OV90
procedure_summary: drug sensitivity score (DSS) from 5-point dose-response viability curve (DSS (area-under-curve based score)); higher = more sensitive (stronger growth inhibition or killing); extreme values may be limits of the assay
stated_conditions: exposure time: 72 h; concentration range: 5 concentrations over 10,000-fold range
property_measured: drug sensitivity score
Just the number, please, no unit after it.

Task: Find the measured drug sensitivity score: item CCCCc1nc2cc(/C=C/C(=O)NO)ccc2n1CCN(CC)CC [Pracinostat] , target or system OV90.
Result: 14.6

Task: Entry CCCCC(=O)OCC(=O)[C@]1(O)Cc2c(O)c3c(c(O)c2[C@@H](O[C@H]2C[C@H](NC(=O)C(F)(F)F)[C@H](O)[C@H](C)O2)C1)C(=O)c1c(OC)cccc1C3=O [Valrubicin] please
Result: 7.7

Task: Here is the next compound: CC[C@]1(O)C[C@H]2CN(CCc3c([nH]c4ccccc34)[C@@](C(=O)OC)(c3cc4c(cc3OC)N(C=O)[C@H]3[C@@](O)(C(=O)OC)[C@H](OC(C)=O)[C@]5(CC)C=CCN6CC[C@]43[C@@H]65)C2)C1 [Vincristine]
Result: 16.9

###

Tested on: Ovsaho
procedure_summary: drug sensitivity score (DSS) from 5-point dose-response viability curve (DSS (area-under-curve based score)); higher = more sensitive (stronger growth inhibition or killing); extreme values may be limits of the assay
stated_conditions: exposure time: 72 h; concentration range: 5 concentrations over 10,000-fold range
Assign drug sensitivity score to each entry below.
Form: value (number only, do not type unit).

Task: Which drug sensitivity score reading was recorded for the molecule O=C(NOC[C@H](O)CO)c1ccc(F)c(F)c1Nc1ccc(I)cc1F ?
Result: 13.5

Task: Next molecule: CO[C@H](C(=O)[C@@H](O)[C@@H](C)O)[C@@H]1Cc2cc3cc(O[C@H]4C[C@@H](O[C@@H]5C[C@@H](O)[C@H](O)[C@@H](C)O5)[C@H](O)[C@@H](C)O4)c(C)c(O)c3c(O)c2C(=O)[C@H]1O[C@H]1C[C@@H](O[C@@H]2C[C@@H](O)[C@@H](O[C@@H]3C[C@](C)(O)[C@H](O)[C@@H](C)O3)[C@@H](C)O2)[C@H](O)[C@@H](C)O1
Result: 0.1

Task: Also O=C1c2c(O)ccc(O)c2C(=O)c2c(NCCNCCO)ccc(NCCNCCO)c21 , if possible.
Result: 6.5

Task: Also CC(=O)c1c(C)c2cnc(Nc3ccc(N4CCNCC4)cn3)nc2n(C2CCCC2)c1=O ?
Result: 3

###

System: OV90
procedure_summary: drug sensitivity score (DSS) from 5-point dose-response viability curve (DSS (area-under-curve based score)); higher = more sensitive (stronger growth inhibition or killing); extreme values may be limits of the assay
stated_conditions: exposure time: 72 h; concentration range: 5 concentrations over 10,000-fold range
Decision: drug sensitivity score compared against 1; not below it gives True, below it gives False.

Task: Reported drug sensitivity score reaches at least 1 for CC(C)C[C@H](NC(=O)[C@@H](COC(C)(C)C)NC(=O)[C@H](Cc1ccc(O)cc1)NC(=O)[C@H](CO)NC(=O)[C@H](Cc1c[nH]c2ccccc12)NC(=O)[C@H](Cc1cnc[nH]1)NC(=O)[C@@H]1CCC(=O)N1)C(=O)N[C@@H](CCCNC(=N)N)C(=O)N1CCC[C@H]1C(=O)NNC(N)=O ?
Result: False

Task: Input COc1cc2c(Oc3ccc4[nH]c(C)cc4c3F)ncnc2cc1OCCCN1CCCC1
Result: False

Task: Thanks! And CCNC(=O)C[C@@H]1N=C(c2ccc(Cl)cc2)c2cc(OC)ccc2-n2c(C)nnc21 ?
Result: True

Task: Next: COc1ccc(C[C@H](NC(=O)[C@H](C)NC(=O)CN2CCOCC2)C(=O)N[C@@H](Cc2ccccc2)C(=O)C2(C)CO2)cc1 (stereo in doubt)
Result: True

Task: Please answer likewise for C=CC(=O)N1CCC(Oc2cc3c(Nc4ccc(Cl)c(Cl)c4F)ncnc3cc2OC)CC1
Result: False

Task: Also O=C(Nc1cnn2ccc(N3CCC[C@@H]3c3cc(F)ccc3F)nc12)N1CC[C@H](O)C1 ?
Result: False

Task: Then this molecule: FC(F)c1nc2ccccc2n1-c1nc(N2CCOCC2)nc(N2CCOCC2)n1
Result: True

Task: // repeat for O=C(NC1CCNCC1)c1n[nH]cc1NC(=O)c1c(Cl)cccc1Cl and report
Result: True

Task: Same thing, different molecule: CO[C@H](C(=O)[C@@H](O)[C@@H](C)O)[C@@H]1Cc2cc3cc(O[C@H]4C[C@@H](O[C@@H]5C[C@@H](O)[C@H](O)[C@@H](C)O5)[C@H](O)[C@@H](C)O4)c(C)c(O)c3c(O)c2C(=O)[C@H]1O[C@H]1C[C@@H](O[C@@H]2C[C@@H](O)[C@@H](O[C@@H]3C[C@](C)(O)[C@H](O)[C@@H](C)O3)[C@@H](C)O2)[C@H](O)[C@@H](C)O1
Result: True

Task: And for CN1CCN(C(=O)c2ccc3cc(CCNc4ncnc5ccc(C#N)cc45)ccc3c2)CC1 ?
Result: False

Task: Then this molecule: O[C@H](C[C@H]1c2c(F)cccc2-c2cncn21)[C@H]1CC[C@H](O)CC1
Result: False

Task: Further, for Cc1c(C(=O)Nc2ccc(N3C[C@@H](C)O[C@@H](C)C3)nc2)cccc1-c1ccc(OC(F)(F)F)cc1 ?
Result: True
